Target: T1, IL-13RA2 huFc (human)
T1 construct: Expressed in 293F cells, purified on protein A; also called human IL13RA2; recombinant IL-13RA2
T1 sequence (chain, as listed by the source limits assumed): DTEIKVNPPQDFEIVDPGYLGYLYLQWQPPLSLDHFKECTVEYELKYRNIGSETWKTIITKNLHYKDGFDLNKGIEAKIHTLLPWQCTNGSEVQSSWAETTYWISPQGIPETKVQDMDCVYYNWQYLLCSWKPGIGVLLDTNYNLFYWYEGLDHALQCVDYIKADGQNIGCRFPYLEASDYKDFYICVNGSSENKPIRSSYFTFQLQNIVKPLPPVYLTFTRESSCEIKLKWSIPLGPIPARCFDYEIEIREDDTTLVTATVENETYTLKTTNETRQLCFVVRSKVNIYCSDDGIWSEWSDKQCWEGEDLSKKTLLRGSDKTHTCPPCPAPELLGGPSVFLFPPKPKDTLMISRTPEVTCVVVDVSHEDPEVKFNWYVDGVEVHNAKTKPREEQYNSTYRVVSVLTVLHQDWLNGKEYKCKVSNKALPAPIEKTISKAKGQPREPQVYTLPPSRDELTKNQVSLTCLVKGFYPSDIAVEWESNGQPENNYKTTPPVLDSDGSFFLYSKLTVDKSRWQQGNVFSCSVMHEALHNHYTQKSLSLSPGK
Test: SPR (Biacore), induced scFv supernatant; column head: Dissociation constant Kd(S-1)
Exercise: state measured koff for each of the binders provided.

For 5D7 (scFv) (scFv, also called clone 5D7) scFv: EVQLLESGGGLVQPGGSLRLSCAASGFTFSNYAMSWVRQAPGKGLEWVSGIRSSGGRTFYADSVKGRFTISRDNSKNTLYLQMNSLRAEDTAVYYCARVAFSGSFDYWGQGTLVTVSSGGGGSGGGGSGGGGSDIQMTQSPSTLSASVGDRVTITCRASQSISSWLAWYQQKPGKAPKLLIYDASSLESGVPSRFSGSGSGTEFTLTISSLQPDDFATYYCQQRNRYPPTFGQGTKVEIK , write its koff.
0.00154 s⁻¹

For 1D8 (scFv) (scFv, also called clone 1D8) scFv: EVQLLESGGGLVQPGGSLRLSCAASGFTFSRYAMNWVRQAPGKGLEWVSAINASGGSTYYADSVKGRFTISRDNSKNTLYLQMNSLRAEDTAVYYCAKVRYGWGAGAFDYWGQGTLVTVSSGGGGSGGGGSGGGGSDIQMTQSPSTLSASVGDRVTITCRASQSISSWLAWYQQKPGKAPKLLIYDASSLESGVPSRFSGSGSGTEFTLTISSLQPDDFATYYCQQYDTYPPITFGQGTKVEIK , write its koff.
0.00094 s⁻¹
